test-description: Cellular viability qHTS for adrenocortical cancer (ACC) cell line NCI-H295R (AID 1963990); further: nearly all actives have a fitted effect of over 60% in size
recorded-conditions: CellTiter-Glo ATP luminescence, 48 h; series mostly up to 46.1 µM
Records with an inconclusive call do not appear. Activity calls are given as the source filed them. The call rests on the fitted dose curve; in most records, active means well fitted cell-killing curve with a large enough effect; inconclusive means small, poorly fitted or top-dose-only effect; inactive means flat fitted curve, though single readings scatter. Numbered stars: 1 amine (or outer) side, 2 acyl side, 3 side chain; on linkers, the order of the positions; unused ones are H or OH. Bridge positions count the residues as written; N and C are the ends. Square brackets hold non-standard residues; d marks the D form. Peptide text beside a SMILES is read from it. I, II: the chains in the order shown. Actinocin(9to1) = Cc1c2oc3c(C)ccc(C(=O)[*:1])c3nc-2c(C(=O)[*:2])c(N)c1=O; NMeV = CN[CH](C(=O)O)C(C)C; Sar = CNCC(=O)O
Respond only with the outcome that fits, drawn from true = active, false = inactive

I'd appreciate the recorded outcome for c1cnc(N2CCN(Cc3ccc4c(c3)OCO4)CC2)nc1 from this test.
false

Cool, now CCOC(=O)[C@H](CCc1ccccc1)N[C@H]1CCc2ccccc2N(CC(=O)O)C1=O
false

What do you have for Cc1c2oc3c(C)ccc(C(=O)NC4C(=O)NC(C(C)C)C(=O)N5CCCC5C(=O)N(C)CC(=O)N(C)C(C(C)C)C(=O)OC4C)c3nc-2c(C(=O)NC2C(=O)NC(C(C)C)C(=O)N3CCCC3C(=O)N(C)CC(=O)N(C)C(C(C)C)C(=O)OC2C)c(N)c1=O (configuration not stated) (I: TVP[Sar][NMeV] / II: TVP[Sar][NMeV]; ester I:1-I:C, II:1-II:C; linker I:N-II:N via Actinocin(9to1); configuration not given here) ?
true

Try COc1ccc(-c2ccc3cc(C(=O)O)ccc3c2)cc1C12CC3CC(CC(C3)C1)C2 next.
false

Now give it for COc1ccc2c(c1)c1c3n2CCN(C)C3=NCC1 too.
false

Please do the same for CC(CN(C)C)C(C)(O)Cc1ccc(Cl)cc1 (configuration not stated) as well.
false

Further, for CNC(=O)Nc1ccc(-c2nc(N3CC4CCC(C3)O4)c3cnn(C4CCC5(CC4)OCCO5)c3n2)cc1 ?
true

And COc1ccc(C(=O)N2CCN(c3ccc4c(c3)CCC(=O)N4)CC2)cc1OC ?
false

Follow-up entry: COc1ccc(C[C@@H](C)[C@@H](C)Cc2ccc(OC)c(OC)c2)cc1OC
false

Now this one: CCOC(=O)[C@H](CCc1ccccc1)N[C@@H](C)C(=O)N1Cc2cc(OC)c(OC)cc2C[C@H]1C(=O)O
false

What do you get for CC(=O)Oc1ccc(C(c2ccc(OC(C)=O)cc2)c2ccccn2)cc1 ?
false

Next: CN(C)C1CCN(C(=O)c2ccc(NC(=O)Nc3ccc(-c4nc(N5CCOCC5)nc(N5CCOCC5)n4)cc3)cc2)CC1
true

Next compound up: CCOc1cc(N)c(Cl)cc1C(=O)NCC1CN(Cc2ccc(F)cc2)CCO1 (configuration not stated)
false

Param item: CN(C)CCN(Cc1cccs1)c1ccccn1
false

Next compound up: C[C@H]1C[C@H](O)c2ccsc2S1(=O)=O
false

Try this compound too: Clc1ccccc1-c1nc(-c2ccncc2)no1
false

How about this compound: COCc1c(C(C)C)nc(C(C)C)c(/C=C/[C@@H](O)C[C@@H](O)CC(=O)O)c1-c1ccc(F)cc1
true

For COc1cc(C(=O)NCc2ccc(OCCN(C)C)cc2)cc(OC)c1OC then?
false

Would you kindly repeat that for CCN(CC)CCNC(=O)COc1ccc(OC)cc1 ?
false

Note, next up: CCC(CC)C(c1ccc(Nc2nc3ccccc3s2)cc1)n1cncn1 (configuration not stated)
true

Same again, this time with COc1cc([C@@H]2c3cc4c(cc3[C@@H](O[C@@H]3O[C@@H]5CO[C@@H](c6cccs6)O[C@H]5[C@H](O)[C@H]3O)[C@H]3COC(=O)[C@H]23)OCO4)cc(OC)c1O
true

Cc1ccc(-n2nc(C(C)(C)C)cc2NC(=O)Nc2ccc(OCCN3CCOCC3)c3ccccc23)cc1 ?
false

Try this compound too: CC(C)(CNC(=O)c1cccc(-c2noc(C(F)(F)F)n2)c1)c1coc(-c2ccccc2)n1
false

Next compound up: O=C(NC[C@H](O)CO)c1ccncc1Nc1ccc(I)cc1F
true

And what about the compound COc1nccc(-c2c(-c3ccc(F)cc3)ncn2C2CCC(O)CC2)n1 (configuration not stated) ?
false

// repeat for Cc1c(F)ccc(C(=O)Nc2cc([N+](=O)[O-])ccc2N2CCN(C)CC2)c1Cl and report
false

Similarly, COCCOC(=O)N1CCN(S(=O)(=O)c2cc(F)c(Oc3ccc(Cl)cc3)c(F)c2)C(C(=O)NO)C1 (configuration not stated) ?
true

Ok, now COc1cc(C(C)=O)ccc1OCCCN1CCC(c2noc3cc(F)ccc23)CC1
false

Cool, now O=c1[nH]cnc2c1ncn2[C@H]1CC[C@@H](CO)O1
false

Also O=c1[nH]cnc2[nH]ncc12 ?
false

Try Cc1nc(Nc2n[nH]c3c2CN(C(=O)N[C@H](CN(C)C)c2ccccc2)C3(C)C)c2sccc2n1 next.
true

Let us now turn to O=C(O)[C@H](O)c1ccccc1
false

Then CN(C)CCOc1ccc(-c2nc(-c3ccc4c(c3)CC/C4=N\O)c(-c3ccncc3)[nH]2)cc1 ?
true

Now consider CCc1ccc(C(=O)Nc2cc(CN3CCN(C)CC3)cc(C(F)(F)F)c2)cc1C#Cc1cnc2ccnn2c1 and answer again.
true

Repeat with O=C(CN1CCN(Cc2ccc3c(c2)OCO3)CC1)N1c2ccccc2Sc2ccccc21
false

Request: O=C1c2ccccc2-[n+]2ccc3c([nH]c4ccccc43)c21
true

Record: CCN(c1cc(-c2ccc(CN3CCOCC3)cc2)cc(C(=O)NCc2c(C)cc(C)[nH]c2=O)c1C)C1CCOCC1
false
